Below is a list of entries, each paired with its recorded Ki value.
- Tested Target: α1d (rat receptor expressed in mouse fibroblasts) (Rattus norvegicus, UniProt P23944)
- Construct: expressed in transfected cells; host or cells: mouse fibroblasts
- Sequence (P23944 whole entry): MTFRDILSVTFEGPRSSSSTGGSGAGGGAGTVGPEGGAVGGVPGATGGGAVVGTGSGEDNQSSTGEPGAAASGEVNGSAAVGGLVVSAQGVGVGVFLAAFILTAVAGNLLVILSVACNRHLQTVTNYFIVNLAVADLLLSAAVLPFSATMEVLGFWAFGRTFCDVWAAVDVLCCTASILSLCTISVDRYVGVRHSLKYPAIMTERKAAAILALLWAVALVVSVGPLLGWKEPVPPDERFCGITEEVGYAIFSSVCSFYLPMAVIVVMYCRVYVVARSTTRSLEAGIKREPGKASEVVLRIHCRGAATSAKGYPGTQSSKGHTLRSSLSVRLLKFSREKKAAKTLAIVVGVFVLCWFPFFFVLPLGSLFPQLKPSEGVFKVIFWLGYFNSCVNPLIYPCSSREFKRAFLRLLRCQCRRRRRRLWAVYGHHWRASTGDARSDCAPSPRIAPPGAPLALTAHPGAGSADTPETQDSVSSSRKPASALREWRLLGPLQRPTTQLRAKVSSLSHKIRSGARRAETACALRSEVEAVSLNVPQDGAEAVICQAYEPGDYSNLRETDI
- Assay Name: Radioligand binding, [3H]-prazosin, α1d
- Experimental Setup: rat receptor expressed in mouse fibroblasts, [3H]-prazosin; read-out: Radioligand Binding Ki α1d (Rat)
Readout Kind: Ki

[[record]]
molecule = "COCCN(CCOC)C(=O)Nc1cccc2c1CCCC2c1c[nH]cn1 (stereo not shown)"
readout_kind = "Ki"
reported_value = "10 µM"

[[record]]
molecule = "O=S(=O)(CC(F)(F)F)Nc1cccc2c1CCCC2c1c[nH]cn1 (single isomer, unassigned; (+))"
readout_kind = "Ki"
reported_value = "10 µM"

[[record]]
molecule = "CS(=O)(=O)Nc1ccc(O)c2c1CCCC2c1c[nH]cn1.O=C(O)/C=C\\C(=O)O (stereo not shown) [Example 24, Maleate]"
readout_kind = "Ki"
reported_value = "10 µM"

[[record]]
molecule = "CCS(=O)(=O)Nc1cc(F)cc2c1OCCC2c1c[nH]cn1.O=C(O)/C=C\\C(=O)O (stereo not shown) [Example 80, Maleate]"
readout_kind = "Ki"
reported_value = "1.59 µM"

[[record]]
molecule = "CCS(=O)(=O)Nc1cc(F)cc2c1CCCC2c1c[nH]cn1 (stereo not shown)"
readout_kind = "Ki"
reported_value = "2.16 µM"

[[record]]
molecule = "O=S(=O)(CC(F)(F)F)Nc1cccc2c1OCCC2c1c[nH]cn1 (single isomer, unassigned)"
readout_kind = "Ki"
reported_value = "10 µM"

[[record]]
molecule = "CCS(=O)(=O)Nc1cccc2c1SCCC2c1c[nH]cn1.O=C(O)/C=C\\C(=O)O (stereo not shown) [Example 89, Maleate]"
readout_kind = "Ki"
reported_value = "10 µM"

